Cited source for all entries: patent US7951816B2

- Subject Of Test: CXCR4 (Homo sapiens)
- Construct: a human T cell strain in which CXCR4 is known to be expressed; endogenous in cells
- Sequence (P61073 whole entry): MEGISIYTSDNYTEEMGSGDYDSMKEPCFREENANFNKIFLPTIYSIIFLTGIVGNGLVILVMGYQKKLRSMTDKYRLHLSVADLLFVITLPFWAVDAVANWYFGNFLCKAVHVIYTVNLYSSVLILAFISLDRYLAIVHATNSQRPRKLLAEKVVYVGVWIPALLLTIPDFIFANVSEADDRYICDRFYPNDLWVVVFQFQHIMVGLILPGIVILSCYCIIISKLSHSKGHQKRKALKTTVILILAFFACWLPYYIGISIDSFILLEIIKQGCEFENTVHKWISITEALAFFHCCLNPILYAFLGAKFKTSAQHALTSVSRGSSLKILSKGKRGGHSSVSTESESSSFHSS
- Experiment Summary: Study for inhibition of binding human SDF-1 to CEM cells (125I-SDF-1)
- Measurement Parameters: 125I-SDF-1 binding to CEM cells
Measured Property: IC50 (nM)
Return type: number; implicit unit nM.

Q: Returns the measured IC50 for the input compound. Input: CCCN(CCC)CCCCNCc1ccc(C(=O)N(Cc2ncc[nH]2)Cc2ncc[nH]2)cc1
Result: 27
